The compounds listed here are annotated with their half-life at 1 μM.
test: Metabolic Stability Study, liver microsome incubation (mouse); type: in vitro ADME; conditions: mouse liver microsomes 0.5 mg/mL, 1 μM compound, NADPH; NA^# = very stable, beyond the detection limits; read-out: T1/2 (min) mouse
Report the figure in min without appending any unit label.

In: Suppose we examine the compound COc1ccc(CN2CCN(C3CC4(C3)CN(c3ccc(C(=O)NS(=O)(=O)c5ccc(NC[C@H]6CC[C@](C)(O)CC6)c([N+](=O)[O-])c5)c(Oc5cnc6[nH]ccc6c5)c3)C4)[C@H](c3ccccc3C(C)C)C2)cc1OC ; what half-life at 1 μM value has been reported?
Out: 196

Continuing:
In: Look up half-life at 1 μM: COc1cc(CN2CCN(C3CC4(C3)CN(c3ccc(C(=O)NS(=O)(=O)c5ccc(NC[C@H]6CC[C@](C)(O)CC6)c([N+](=O)[O-])c5)c(Oc5cnc6[nH]cc(F)c6c5)c3)C4)[C@H](c3ccccc3C(C)C)C2)cc2cc(C)oc12
Out: 538

In: What half-life at 1 μM value was documented for this compound, CC(C)c1ccccc1C1CN(Cc2ccccc2F)CCN1C1CC2(CCN(c3ccc(C(=O)NS(=O)(=O)c4ccc(NC[C@H]5CC[C@](C)(O)CC5)c([N+](=O)[O-])c4)c(Oc4cnc5[nH]ccc5c4)c3)CC2)C1 (stereo partly shown) ?
Out: 131

In: State the recorded half-life at 1 μM for this entry: CC(C)c1ccccc1C1CN(Cc2ccc(C(F)(F)F)cc2)CCN1C1CC2(CCN(c3ccc(C(=O)NS(=O)(=O)c4ccc(NC[C@H]5CC[C@](C)(O)CC5)c([N+](=O)[O-])c4)c(Oc4cnc5[nH]ccc5c4)c3)CC2)C1 (stereo partly shown)
Out: 683

----------
test system: RS4;11 (BCL-2 dependent acute lymphoblastic leukemia cell line); assay: RS4;11 Cell Proliferation Assay; type: cell-based; settings: Homo sapiens, RS4-11, RS4;11 cells, read-out: Cellular proliferation assay (IC50, nM) RS4
IC50 strictly less than 0.2 nM = satisfied. Otherwise not satisfied.

In: Find out if reported IC50 for COc1cc(CN2CCN(C3CC4(C3)CN(c3ccc(C(=O)NS(=O)(=O)c5ccc(NC[C@H]6CC[C@](C)(O)CC6)c([N+](=O)[O-])c5)c(Oc5cnc6[nH]cc(F)c6c5)c3)C4)[C@H](c3ccccc3C(C)C)C2)cc2c1OCC2(C)C [Example 295] is less than 0.2 nM
Out: not satisfied

In: Quick check: IC50 of [2H]C([2H])([2H])Oc1cc(CN2CCN(C3CC4(C3)CN(c3ccc(C(=O)NS(=O)(=O)c5ccc(NC[C@H]6CC[C@](C)(O)CC6)c([N+](=O)[O-])c5)c(Oc5cnc6[nH]cc(F)c6c5)c3)C4)[C@H](c3ccccc3C(C)C)C2)cc2c1OCC2(C)C [Example 326] under 0.2 nM?
Out: satisfied

In: For [2H]C([2H])([2H])Oc1ccc(CN2CCN(C3CC4(C3)CN(c3ccc(C(=O)NS(=O)(=O)c5ccc(NC[C@H]6CC[C@](C)(O)CC6)c([N+](=O)[O-])c5)c(Oc5cnc6[nH]ccc6c5)c3)C4)[C@H](c3ccccc3C(C)C)C2)cc1OC([2H])([2H])[2H] [Example 243] , is the recorded IC50 below the cut-off of 0.2 nM?
Out: satisfied

In: IC50 strictly < 0.2 nM for this compound? CC(C)c1ccccc1[C@@H]1CN(Cc2ccnc3c2OC(C)(C)CO3)CCN1C1CC2(C1)CN(c1ccc(C(=O)NS(=O)(=O)c3ccc(NC[C@H]4CC[C@](C)(O)CC4)c([N+](=O)[O-])c3)c(Oc3cnc4[nH]ccc4c3)c1)C2 [Example 314]
Out: satisfied

In: is_below(IC50, 0.2 nM) for COc1ccc(CN2CCN(C3CC4(CCN(c5ccc(C(=O)NS(=O)(=O)c6ccc(NC[C@H]7CC[C@](C)(O)CC7)c([N+](=O)[O-])c6)c(Oc6cnc7[nH]ccc7c6)c5)CC4)C3)C(c3ccccc3C(C)C)C2)cc1F (stereo partly shown) [Example 134] ?
Out: not satisfied

----------
target: recombinant human Bcl-2-G101V protein (Homo sapiens (Human), UniProt P10415, G101V); assay: Bcl-2-G101V TR-FRET Assay; format: binding; details: Bcl-2 G101V mutant, TR-FRET; read-out: Biochemical assay (IC50, nM) Bcl-2 G101V
ASSAY READOUT: log10(IC50) (log10 of the value in nM)
Use the decimal logarithm of IC50 (nM).

Worked cases, answers included:
In: Checklist item: log10(IC50) tested on recombinant human Bcl-2-G101V protein (Homo sapiens (Human), UniProt P10415, G101V), entry COc1ccc(CN2CCN(C3CC4(C3)CN(c3ccc(C(=O)NS(=O)(=O)c5ccc(NC[C@H]6CC[C@](C)(O)CC6)c([N+](=O)[O-])c5)c(Oc5cnc6[nH]cc(Cl)c6c5)c3)C4)[C@H](c3ccccc3C(C)C)C2)cc1OC [Example 164] , value?
Out: -0.46

In: Fill in the recorded log10(IC50) for this compound, with recombinant human Bcl-2-G101V protein (Homo sapiens (Human), UniProt P10415, G101V) as test system: CC(C)c1ccccc1[C@@H]1CN(Cc2cccc3c2OCCO3)CCN1C1CC2(C1)CN(c1ccc(C(=O)NS(=O)(=O)c3ccc(NC[C@H]4CC[C@](C)(O)CC4)c([N+](=O)[O-])c3)c(Oc3cnc4[nH]ccc4c3)c1)C2 [Example 149a]
Out: -0.57

In: Observed log10(IC50) on recombinant human Bcl-2-G101V protein (Homo sapiens (Human), UniProt P10415, G101V) for COc1ccc(OC2CCN(C3CC4(CCN(c5ccc(C(=O)NS(=O)(=O)c6ccc(NC[C@H]7CC[C@](C)(O)CC7)c([N+](=O)[O-])c6)c(Oc6cnc7[nH]ccc7c6)c5)CC4)C3)C(c3ccccc3C(C)C)C2)cc1 (stereo partly shown) [Example 138] , please.
Out: 0.18

More entries:
In: # query: log10(IC50) | item COc1cc(CN2CCN(C3CC4(C3)CN(c3ccc(C(=O)NS(=O)(=O)c5ccc(NC[C@H]6CC[C@](C)(O)CC6)c([N+](=O)[O-])c5)c(Oc5cnc6[nH]cc(F)c6c5)c3)C4)[C@H](c3ccccc3C(C)C)C2)ccc1NC(C)C [Example 360] | system: recombinant human Bcl-2-G101V protein (Homo sapiens (Human), UniProt P10415, G101V)
Out: -0.30

In: GET /values?readout=log10(IC50)&system=recombinant human Bcl-2-G101V protein (Homo sapiens (Human), UniProt P10415, G101V)&item= COc1cc(CN2CCN(C3CC4(C3)CN(c3ccc(C(=O)NS(=O)(=O)c5ccc(NC[C@H]6CC[C@](C)(O)CC6)c([N+](=O)[O-])c5)c(Oc5cnc6[nH]ccc6c5)c3)C4)[C@H](c3ccccc3C(C)C)C2)ccc1C1CC1 [Example 233]
Out: -0.02

----------
molecular target: Recombinant human Bcl-2 protein (Homo sapiens (Human), UniProt P10415); test: Bcl-2 TR-FRET Assay; assay type: binding; details: Bcl-2 wild type, TR-FRET; read-out: Biochemical assay (IC50, nM) Bcl-2 WT
The entries below come with measured IC50 values attached.
Could you give me the number in nM? Just the number is fine.

Known results for compounds:
In: So what's the measured IC50 for this one? [2H]C([2H])([2H])Oc1cc(CN2CCN(C3CC4(C3)CN(c3ccc(C(=O)NS(=O)(=O)c5ccc(NC[C@H]6CC[C@](C)(O)CC6)c([N+](=O)[O-])c5)c(Oc5cnc6[nH]ccc6c5)c3)C4)[C@H](c3ccccc3C(C)C)C2)cc2ccoc12 [Example 323]
Out: 0.22

In: IC50 lookup needed for CC(C)c1ccccc1[C@@H]1CN(Cc2ccc(Cl)cc2)CCN1C1CC2(CCN(c3ccc(C(=O)NS(=O)(=O)c4ccc(NC[C@H]5CC[C@](C)(O)CC5)c([N+](=O)[O-])c4)c(Oc4cnc5[nH]ccc5c4)c3)CC2)C1 (single isomer, unassigned) [Example 29a] , thanks.
Out: 0.2

---
In: // query IC50 value for entry COc1ccc(CN2CCN(C3CC4(CCN(c5ccc(C(=O)NS(=O)(=O)c6ccc(NC[C@H]7CC[C@](C)(O)CC7)c([N+](=O)[O-])c6)c(Oc6cnc7[nH]ccc7c6)c5)CC4)C3)C(c3ccccc3C(C)C)C2)cc1Br (some centres unmarked) [Example 143]
Out: 0.48

In: Recorded IC50 of COc1cc(CN2CCN(C3CC4(C3)CN(c3ccc(C(=O)NS(=O)(=O)c5ccc(NC[C@H]6CC[C@](C)(O)CC6)c([N+](=O)[O-])c5)c(Oc5cnc6[nH]cc(F)c6c5)c3)C4)[C@H](c3ccccc3C(C)C)C2)ccc1C [Example 274] , please.
Out: 0.55

In: # query: IC50 of entry COc1ccc(CN2CCN(C3CC4(CCN(c5ccc(C(=O)NS(=O)(=O)c6ccc(NC[C@H]7CC[C@](C)(O)CC7)c([N+](=O)[O-])c6)c(Oc6cnc7[nH]ccc7c6)c5)CC4)C3)C(c3ccccc3C(C)C)C2)cc1OC (some centres unmarked) [Example 81]
Out: 0.038

In: What does the record list as IC50 for COc1cc(CN2CCN(C3CC4(C3)CN(c3ccc(C(=O)NS(=O)(=O)c5ccc(NCC6CCOCC6)c([N+](=O)[O-])c5)c(Oc5cnc6[nH]cc(F)c6c5)c3)C4)[C@H](c3ccccc3C(C)C)C2)ccc1C1CC1 [Example 320] ?
Out: 0.55

In: // returns reported IC50 for input COc1cc(CN2CCN(C3CC4(C3)CN(c3ccc(C(=O)NS(=O)(=O)c5ccc(NC[C@H]6CC[C@](C)(O)CC6)c([N+](=O)[O-])c5)c(Oc5cnc6[nH]ccc6c5)c3)C4)[C@H](c3ccccc3C(C)C)C2)ccc1C [Example 275]
Out: 0.27

In: Name the recorded IC50 for CC(C)c1ccccc1[C@@H]1CN(Cc2ccc(C3COC3)cc2)CCN1C1CC2(C1)CN(c1ccc(C(=O)NS(=O)(=O)c3ccc(NC[C@H]4CC[C@](C)(O)CC4)c([N+](=O)[O-])c3)c(Oc3cnc4[nH]cc(F)c4c3)c1)C2 [Example 362] .
Out: 0.07

Ref: patent US20240376097A1
